System: P. falciparum 3D7 parasites
Experiment: P. falciparum growth inhibition assay, 2-cycle (120 h treatment), delayed-death screen and dose-response
Format: cell-based, Plasmodium falciparum
Settings: library screen at 2 μg/mL, 120 h, % growth, replicate 2
Would you mind sorting the entries by Pf_120h_%Growth_Rep2 according to these classes? lo = under 20%, mid = from 20% up to 90%, hi = 90% and over

Compound: CO[C@@H]1[C@@H](O)[C@@H](O)[C@@H](Oc2ccc3c(O)c(NC(=O)c4ccc(O)c(CC=C(C)C)c4)c(=O)oc3c2C)OC1(C)C [Descarbamylnovobiocin]
Measured target: P. falciparum 3D7 parasites
Assigned category: mid
//
Compound: O=C1c2c(O)cc(O)cc2OC1(O)Cc1ccc(O)c(O)c1 (stereo not drawn) [Alphitonin]
Measured target: P. falciparum 3D7 parasites
Assigned category: hi
//
Compound: C/C=C/[C@@H]1C=C[C@@H]2C[C@H](C)CC[C@H]2[C@]1(C)/C(O)=C1/C(=O)[C@@H](CO)N(C)C1=O [Epiequisetin]
Measured target: P. falciparum 3D7 parasites
Assigned category: mid
//
Compound: CCCN1C[C@H](C)[C@@H](O)[C@](C)(O)[C@@H](CC)OC(=O)[C@H](C)[C@@H](O[C@H]2C[C@@](C)(OC)[C@@H](O)[C@H](C)O2)[C@H](C)[C@@H](O[C@@H]2O[C@H](C)C[C@H](N(C)C)[C@H]2O)[C@](C)(O)C[C@H]1C [Gamithromycin, reference compound]
Measured target: P. falciparum 3D7 parasites
Assigned category: lo
//
Compound: CC(C)=C[C@H]1C[C@H](C)[C@]2(CC[C@]3(C)C[C@@H]4C(C)=CC(=O)[C@@H]4/C(C=O)=C\C[C@H]32)O1 [Anhydroophiobolin A]
Measured target: P. falciparum 3D7 parasites
Assigned category: lo
//
Compound: CC[C@H]1CCC[C@H](O)[C@@H](C)C(=O)C2=C[C@H]3[C@@H]4C[C@H](O)C[C@H]4CC[C@H]3[C@@H]2CC(=O)O1 [Dihydrospinosyn A aglycone]
Measured target: P. falciparum 3D7 parasites
Assigned category: hi
//
Compound: CC[C@H]1OC(=O)[C@H](C)[C@@H](O[C@H]2C[C@@](C)(OC)[C@@H](O)[C@H](C)O2)[C@H](C)[C@@H](O[C@@H]2O[C@H](C)C[C@H](N(C)C)[C@H]2O)[C@](C)(O)C[C@@H](C)C(=NO)[C@H](C)[C@@H](O)[C@]1(C)O [Erythromycin A oxime]
Measured target: P. falciparum 3D7 parasites
Assigned category: mid
//
Compound: CC(=O)NCCc1ccc(O)cc1 [Acetyltyramine, N-]
Measured target: P. falciparum 3D7 parasites
Assigned category: mid
//
Compound: CO[C@H]1C[C@H](O[C@H]2[C@H](C)O[C@@H](O[C@@H]3/C(C)=C/C[C@@H]4C[C@@H](C[C@]5(C=C[C@H](C)[C@@H](C6CCCCC6)O5)O4)OC(=O)[C@H]4C=C(C)[C@@H](O)[C@H]5OC/C(=C\C=C\[C@@H]3C)[C@@]45O)C[C@@H]2OC)O[C@@H](C)[C@@H]1O [Doramectin, epi-]
Measured target: P. falciparum 3D7 parasites
Assigned category: mid
//
Compound: CCCC[C@@H](C)[C@@H](OC(=O)C[C@@H](CC(=O)O)C(=O)O)[C@H](C[C@@H](C)CCCCCC[C@@H](O)C[C@H](O)[C@H](C)N)OC(=O)C[C@@H](CC(=O)O)C(=O)O [Fumonisin B2]
Measured target: P. falciparum 3D7 parasites
Assigned category: hi
//
Compound: O=C1NC(c2c[nH]c3ccccc23)=C/C1=C1\C(=O)Nc2ccccc21 [Deoxyviolacein]
Measured target: P. falciparum 3D7 parasites
Assigned category: lo
//
Compound: COc1cc2c3c(c1O)-c1c(cc(O)c(OC)c1OC)CCC3N(C)CC2 (stereo not drawn) [Floramultine]
Measured target: P. falciparum 3D7 parasites
Assigned category: hi

====

System: P. falciparum 3D7 parasites
Test: P. falciparum growth inhibition assay, 1-cycle (72 h treatment), SYBR DNA staining (library screen at 2 μg/mL and dose-response)
Assay type: cell-based, Plasmodium falciparum
Settings: P. falciparum 3D7, 72 h, parasite screen at 2 μg/mL, % growth, replicate 1
Decision: Pf_72h_%Growth_Rep1 compared against 80%; not below it gives YES, below it gives NO.

Compound: COC1=CC(=O)c2c(n(C)c3occc3c2=O)C1=O [BIA-M1955]
Assigned category: NO
//
Compound: CN(C)[C@@H]1C(O)=C(C(N)=O)C(=O)[C@@]2(O)C(O)=C3C(=O)c4c(O)cccc4[C@@](C)(O)[C@H]3[C@H](O)[C@@H]12 [BIA-O1336]
Assigned category: NO
//
Compound: CC=C(C)c1c(Cl)c(OC)c(C)c2c1Oc1c(Cl)c(O)c(Cl)c(C)c1C(=O)O2 [BIA-N1157]
Assigned category: YES
//
Compound: CC(C)Cc1cnc(C(O)C(C)C)c(=O)n1O (stereo not drawn) [BIA-N1641]
Assigned category: YES
//
Compound: Cc1cc(O)c(C)c(O)c1C(=O)O [BIA-M1661]
Assigned category: NO
//
Compound: CC1=C\[C@@H](O)CC(=O)Cc2nc(co2)C(=O)N2CCC=C2C(=O)O[C@H](C(C)C)[C@H](C)/C=C/C(=O)NC\C=C\1 [BIA-O1131]
Assigned category: NO
//
Compound: C=C1c2cccc(O)c2C(=O)C2=C(O)[C@]3(O)C(=O)C(C(N)=O)=C(O)[C@@H](N(C)C)[C@@H]3[C@@H](O)[C@H]12 [BIA-M1467]
Assigned category: YES
//
Compound: CCC1C=C(C)CC(C)CC(OC)C2OC(O)(C(=O)C(=O)N3CCCCC3C(=O)OC(C(C)=CC3CCC(Cl)C(OC)C3)C(C)C(O)CC1=O)C(C)CC2OC (stereo not drawn) [BIA-P1385]
Assigned category: NO
//
Compound: CCC1OC2(CCC1C)CC1CC(CC=C(C)CC(C)C=CC=C3COC4C(O)C(C)=CC(C(=O)O1)C34O)O2 (stereo not drawn) [BIA-M1052]
Assigned category: NO
//
Compound: COc1ccc2c(c1OC)C(=O)O[C@@H]2[C@H]1c2c(cc3c(c2OC)OCO3)CCN1C [BIA-N1938]
Assigned category: YES
//
Compound: COc1ccc2[nH]c3c(C)c4ccncc4c(C)c3c2c1 [BIA-M1952]
Assigned category: NO
//
Compound: CCC1(C2OC(C3OC(O)(CO)C(C)CC3C)CC2C)CCC(C2(C)CCC3(CC(O)C(C)C(C(C)C(OC)C(C)C(=O)O)O3)O2)O1 (stereo not drawn) [BIA-M1303]
Assigned category: NO
//
Compound: CSc1cc(=O)n2c3ccccc3c3ccnc1c32 [BIA-M1959]
Assigned category: NO

====

Readings of activity at 2 µg/mL for the listed compounds
Tested on: P. falciparum 3D7 parasites
Assay: P. falciparum growth inhibition assay, 2-cycle (120 h treatment), delayed-death screen and dose-response
Assay type: cell-based, Plasmodium falciparum
Conditions: Plasmodium falciparum, 3D7; P. falciparum, 120 h, screen at 2 μg/mL, replicate 1; read-out: Pf_120h_%Growth_Rep1

Input smiles: CC(C)[C@@H]1NC(=O)[C@H](C)OC(=O)[C@@H](C(C)C)NC(=O)[C@@H](C(C)C)OC(=O)[C@H](C(C)C)NC(=O)[C@H](C)OC(=O)[C@@H](C(C)C)NC(=O)[C@@H](C(C)C)OC(=O)[C@H](C(C)C)NC(=O)[C@H](C)OC(=O)[C@@H](C(C)C)NC(=O)[C@@H](C(C)C)OC1=O
Result units: %
activity at 2 µg/mL: 90.6

Input smiles: CO[C@H]1C[C@@H]2CC[C@@H](C)[C@@](O)(O2)C(=O)C(=O)N2CCCC[C@H]2C(=O)O[C@H]([C@H](C)C[C@@H]2CC[C@@H](OC(=O)C(C)(CO)CO)[C@H](OC)C2)CC(=O)[C@H](C)/C=C(\C)[C@@H](O)[C@@H](OC)C(=O)[C@H](C)C[C@H](C)/C=C/C=C/C=C/1C
Result units: %
activity at 2 µg/mL: 61.2

Input smiles: COc1c(C[C@@H](C)OC(=O)Oc2ccc(O)cc2)c2c3c(C[C@@H](C)OC(=O)c4ccccc4)c(OC)c(=O)c4c(O)cc(OC)c(c5c(OC)cc(O)c(c1=O)c52)c43
Result units: %
activity at 2 µg/mL: 17

Input smiles: CN(C)c1cc(NC(=O)CNC(C)(C)C)c(O)c2c1C[C@H]1C[C@H]3[C@H](N(C)C)C(O)=C(C(N)=O)C(=O)[C@@]3(O)C(O)=C1C2=O
Result units: %
activity at 2 µg/mL: 106

====

Here, each record is paired with measured Tg_72h_%Growth_Rep2 data.
System: T. gondii RH strain (RH-Tub-eYFP) tachyzoites
Assay: microbe, parasite or virus in culture
Assay type: cell-based, Toxoplasma gondii
Settings: library screen at 2 μg/mL, 72 h, % growth, replicate 2
Value kind: Tg_72h_%Growth_Rep2 (%)

Molecule: C/C=C/C=C/[C@H]1Cc2cc(O)cc(O)c2O1 [Asperfuran]
Measured target: T. gondii RH strain (RH-Tub-eYFP) tachyzoites
Result units: %
Test value: 59.68

Molecule: CN1C(=O)[C@]23C[C@H]4C(C)(C)[C@]5(CNc6c5ccc5c6OC=CC(C)(C)O5)C[C@@]41CN2CC[C@@]3(C)O [Derquantel]
Measured target: T. gondii RH strain (RH-Tub-eYFP) tachyzoites
Result units: %
Test value: 97.75

Molecule: COc1cc(C)c2c(c1)O[C@]1(C)Cc3cc4c(c(O)c3[C@H]2O1)C(=O)c1c(O)c(Cl)c(O)c(Cl)c1C4(C)C [Bischloroanthrabenzoxocinone]
Measured target: T. gondii RH strain (RH-Tub-eYFP) tachyzoites
Result units: %
Test value: 75.56

Molecule: C/C=C/[C@@H]1C=C[C@@H]2C[C@H](C)CC[C@H]2[C@]1(C)/C(O)=C1/C(=O)[C@H](CO)N(C)C1=O [Equisetin]
Measured target: T. gondii RH strain (RH-Tub-eYFP) tachyzoites
Result units: %
Test value: 86.41

Molecule: CN(C)[C@H]1C(O)=C(C(N)=O)C(=O)[C@@]2(O)C(O)=C3C(=O)c4c(O)ccc(Cl)c4[C@@](C)(O)[C@H]3C[C@@H]12.Cl [Epichlortetracycline hydrochloride]
Measured target: T. gondii RH strain (RH-Tub-eYFP) tachyzoites
Result units: %
Test value: 103.55

Molecule: CO/C1=C\C(C)=C\[C@@H](C)[C@@H](O)[C@@H](C)C/C(C)=C/C=C/[C@H](OC)[C@@H]([C@@H](C)[C@@H](O)[C@H](C)[C@@]2(O)C[C@@H](OC(=O)/C=C/C(=O)NC3=C(O)CCC3=O)[C@H](C)[C@@H](C(C)C)O2)OC1=O [Bafilomycin B1]
Measured target: T. gondii RH strain (RH-Tub-eYFP) tachyzoites
Result units: %
Test value: 0.68

Molecule: CC(=O)N[C@H]1CCOC1=O [Acetyl-L-homoserine lactone]
Measured target: T. gondii RH strain (RH-Tub-eYFP) tachyzoites
Result units: %
Test value: 103.34
